system: T1, HLA-A2/NY-ESO peptide complex presented on cells (human)
T1 construct: whole, on cells; also called HLA/NY-ESO; T2 cells supplemented with the NY-ESO peptide
assay-remarks: flow cytometry on peptide-pulsed T2 cells, scFv 100 nM;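 further: scFv binding read as gMFI and normalized to the level of HLA/peptide complex displayed on T2 cells, with homologous 9-mer peptides used to probe specificity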
property-label: standardized gMFI

[ask] Provide one value: measured standardized gMFI of NYC-0004 (scFv, not shown: small tags and cut ends, also called T1 scFv; NYC-0004 tag adduct) scFv: EVQLLESGGGLVQPGGSLRLSCAASGFTFSTYQMSWVRQAPGKGLEWVSGIVSSGGSTAYADSVKGRFTISRDNSKNTLYLQMNSLRAEDTAVYYCAGELLPYYGMDVWGQGTTVTVSSGGGGSGGGGSGGGGSQSELTQPRSVSGSPGQSVTISCTGTERDVGGYNYVSWYQQHPGKAPKLIIHDVIERSSGVPDRFSGSKSGNTASLTISGLQAEDEADYYCWSFAGGYYVFGTGTDVTVL
[reply] 9.19

[ask] Provide one value: measured standardized gMFI of NYA-2061 (scFv, also called NYA-2061 tag adduct) scFv: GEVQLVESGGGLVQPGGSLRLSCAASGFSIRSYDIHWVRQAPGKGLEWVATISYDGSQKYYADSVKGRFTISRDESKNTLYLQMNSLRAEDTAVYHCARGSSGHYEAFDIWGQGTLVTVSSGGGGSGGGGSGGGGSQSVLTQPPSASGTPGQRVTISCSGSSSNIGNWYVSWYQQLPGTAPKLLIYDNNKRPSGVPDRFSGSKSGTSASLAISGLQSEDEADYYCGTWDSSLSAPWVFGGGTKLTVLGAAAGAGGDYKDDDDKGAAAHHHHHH
[reply] 10.4
